Values from ChEMBL document CHEMBL1926604

// reported bioavailability per item
# test: Oral bioavailability in dog
# Format: ADME, organism-based, Canis lupus familiaris
# test.conditions: in vivo

INSERT INTO assay_data (molecule, value_reported) VALUES
  ('COCCOc1ccc(N(Cc2cnccc2C)C2CCN([C@H](C)CCNC(=O)c3c(C)cc(Cl)nc3C)CC2)cc1', '< 1%'),
  ('CC(CCNC(=O)c1c(Cl)cncc1Cl)N1CCC(N(Cc2ccccc2)c2ccc(Oc3ccc(C(=O)O)cc3)cc2)CC1 (stereo not given)', '35%'),
  ('COc1ccc(N(Cc2cnccc2C)C2CCN([C@H](C)CCNC(=O)c3c(C)ccnc3Cl)CC2)cc1', '4%'),
  ('COc1ccc(N(Cc2cccc(C#N)n2)C2CCN([C@H](C)CCNC(=O)c3c(C)cc(Cl)nc3C)CC2)cc1', '15%');

Prompt: Which bioavailability value belongs to "COc1ccc(N(Cc2cccnc2)C2CCN([C@H](C)CCNC(=O)c3c(C)cc(Cl)nc3C)CC2)cc1" ?
Response: 37%
